# Tested on: HME-TERT parental (wild type) cells
# TEST NAME: MTS cell proliferation assay, control HME parental (WT) cells
# Assay type: cell-based
# TEST SETTINGS: Homo sapiens, 72 h after drug treatment, 0.5% FBS, read-out: Inhibition of cell proliferation: EC50, WT
pEC50: −log10 of the molar value.
METRIC NAME: pEC50

INSERT INTO assay_data (compound, target_or_system, metric_name, sign_qualifier, measured_result) VALUES
  ('CN(C)C(=N)N=C(N)N [metformin]', 'HME-TERT parental (wild type) cells', 'pEC50', '<', 2.52),
  ('N=C(N)NC(=N)NCCc1ccccc1 [phenformin]', 'HME-TERT parental (wild type) cells', 'pEC50', '=', 2.77);

All figures here come from patent US20120041070A1.
